- TEST DETAILS: 7-day mouse toxicology study: toxicokinetics (plasma, brain, CSF), 30 mg/kg/day PO
- Format: in vivo, male C57BL/6 mice
- PARTICULARS: male, C57BL/6, mouse, brain, po, 30 mg/kg/day, brain, D 7-30 mg/kg, PO; read-out: AUClast (b)
ENDPOINT NAME: AUC(0-t) (ng·h/mL)
Give bare numbers, in ng·h/mL.

Enquiry: If you can, please state the reported AUC(0-t) value of Cc1cccnc1[C@@H]1CCC[C@H](c2nc3cccc(N4CCN(C)CC4)c3[nH]2)N1C (racemic) .
Return: 10900

---

Hi there, I'd appreciate the recorded efflux ratio at 90 min, 10 μM for every entry that follows.
- TEST DETAILS: in vitro
- PARTICULARS: human, Caco-2, pH 7.4

Enquiry: If you can, please state the reported efflux ratio at 90 min, 10 μM value of Cc1cccnc1[C@@H]1CCC[C@H](c2nccn2CCn2cccn2)N1 .
Return: 0.1 to 10

# return efflux ratio at 90 min, 10 μM for each item in the list
1. CN1CCC(c2cccc3nc([C@H]4CCC[C@@H](c5ncccc5Cl)N4)[nH]c23)CC1
2. Cc1cccnc1[C@@H]1CCC[C@H](c2nc3cccc(N4CCN(C(C)C)CC4)c3[nH]2)N1C
3. CN1CCC(n2c([C@H]3CCC[C@@H](c4ncccc4Cl)N3)nc3ccccc32)CC1
4. Cc1cccnc1[C@@H]1CCC[C@H](c2nc3ccccc3n2Cc2ccccc2-n2cccn2)N1
5. Cc1cccnc1[C@@H]1CCC[C@H](c2nccn2C2CCNCC2)N1C
6. Cc1cccnc1[C@@H]1CCC[C@H](c2nc3cccc(C4CCNCC4)c3[nH]2)N1C
7. Cc1cccnc1[C@@H]1CCC[C@H](c2nc3ccccc3n2CCCCN(C)C)N1C
8. Cc1cccnc1[C@@H]1CCC[C@H](c2nc3ccccc3[nH]2)N1CCc1ccccn1

Return:
1. 0.1 to 10
2. 0.1 to 10
3. 0.1 to 10
4. 0.1 to 10
5. 10 to 30
6. > 30
7. 0.1 to 10
8. 0.1 to 10
